Give cell viability for every item shown.
Test system: SEM cells
testDescription: cell viability relative to DMSO control; higher = less cytotoxic
recordedConditions: RPMI 5 mM glucose + 10% FBS; 48 h; 0.00234 µM
// units = %; emit number, no label

So what's the measured cell viability for this one? CC(C)(C)C(=O)Oc1ccc2c(c1)nc(NC(=O)c1cccc([N+](=O)[O-])c1)n2CCCO 120

Look at this compound and give its reported cell viability. COC1CCC(CC1)N(C(=O)C2CCC(C)CC2)C3=C(SC(=C3)\C4=C\CCCC4)C(O)=O (stereo not drawn) 111

Field request: cell viability | item: CC/C(=C(/c1ccc(O)cc1)c1ccc(OCCNC)cc1)c1ccccc1 102

What measured cell viability goes with CN(c1ncccc1CNc1nc(Nc2ccc3c(c2)CC(=O)N3)ncc1C(F)(F)F)[S+](C)(=O)[O-] ? 122

Recorded cell viability of FC(F)(F)c1ccc(/C=C/c2nc(COc3ccc(CCCCn4ccnn4)cc3)co2)cc1 , please. 103

For C[C@]\12CC[C@H](O)CC1=C/CC3C2CC[C@@]\4(C)C3C\C=C4[N]5C=NC6=C5C=CC=C6 (stereo partly drawn) , what is its reported cell viability? 93.3

Look at this compound and give its reported cell viability. CC(C)NCC(O)COc1ccc(COCCOC(C)C)cc1 (stereo not drawn) 124

Given the entry CN(C)c1ccc(O)c2c1C[C@H]1C[C@H]3[C@H](N(C)C)C(O)=C(C(N)=O)C(=O)[C@@]3(O)C(O)=C1C2=O , report its measured cell viability. 103

* * *

System: NOMO1
testDescription: cell viability relative to DMSO control; higher = less cytotoxic
recordedConditions: RPMI 5 mM glucose + 10% dialyzed FBS; 48 h; 0.00234 µM
measurementLabel: cell viability (%)
The response must be a number in % with no trailing unit.

Item FC(F)(F)c1ccc(/C=C/c2nc(COc3ccc(CCCCn4ccnn4)cc3)co2)cc1 with NOMO1 - cell viability? 143

Form: Entry = Oc1ccc2c3c1O[C@H]1c4[nH]c5c(c4C[C@@]4(O)[C@@H](C2)N(CC2CC2)CC[C@]314)C[C@@]1(O)[C@H]2Cc3ccc(O)c4c3[C@@]1(CCN2CC1CC1)[C@H]5O4 | System = NOMO1 | cell viability = ____ 127

// fetch NOMO1 cell viability for CC1(C)O[C@@H]2C[C@H]3[C@@H]4CCC5=CC(=O)C=C[C@]5(C)[C@@]4(F)[C@@H](O)C[C@]3(C)[C@]2(C(=O)CO)O1 112

Entry CNC1CCC(N(Cc2cccc(-c3ccncc3)c2)C(=O)c2sc3ccccc3c2Cl)CC1 (stereo not drawn) , system NOMO1: what cell viability was measured? 88.3

What cell viability appears in the records for this compound with NOMO1? N=C(CCSCc1csc(N=C(N)N)n1)N[S+](N)(=O)[O-] 96

API: value(readout=cell viability, system=NOMO1) for record CCC[C@H](NC(=O)/C(C#N)=C/c1cccc(Br)n1)c1ccccc1 114

API: value(readout= cell viability, system= NOMO1, query= Cc1ccccc1N1C(=O)c2cc([S+](N)(=O)[O-])c(Cl)cc2NC1C (stereo not drawn) ) 128

Lookup: cell viability / NOMO1 / CCN(CC)CC#CCOC(=O)C(O)(c1ccccc1)C1CCCCC1 (stereo not drawn) 121

Reported cell viability for NOMO1, given C[C@H](NC(=O)/C(C#N)=C/c1cccc(Br)n1)c1ccccc1 ? 115

Give the reported cell viability for NC1(Cc2ccc(Cl)cc2)CCN(c2ncnc3[nH]ccc23)CC1 (system: NOMO1). 92.8

Entry CC(=O)N(C)c1cccc(-c2ccnc3c(C(=O)c4cccs4)cnn23)c1 , system NOMO1: what cell viability was measured? 103

What is its cell viability for NOMO1? Entry: CCCCCCCCCCCCCCCCCCCCCCO 107

Entry COc1ccc(C[C@@H](C)[C@@H](C)Cc2ccc(OC)c(OC)c2)cc1OC , system NOMO1: what cell viability was measured? 80.2

Form: Entry = COC[C@H]1OC(=O)C2=COC3=C2[C@@]1(C)\C4=C(C5CCC(=O)[C@@]5(C)C[C@H]4OC(C)=O)/C3=O (stereo partly drawn) | System = NOMO1 | cell viability = ____ 85.2

Requested read-out cell viability, target or system NOMO1, entry CCC(C)SSc1ncc[nH]1 (stereo not drawn) 97.6

Test system NOMO1; read-out cell viability; what value for CC(C)[C@@H](N(CCCN)C(=O)C1=CC=C(C)C=C1)C/2=N/C3=CC(=CC=C3C(=O)N2CC4=CC=CC=C4)Cl ? 24

cell viability of C[C@]\12CC[C@H](O)CC1=C/CC3C2CC[C@@]\4(C)C3C\C=C4[N]5C=NC6=C5C=CC=C6 (stereo partly drawn) on NOMO1? 101

Please tell me: cell viability of COC1=C(N2CCNC(C)C2)C(=CC3=C1N(\C=C(C(O)=O)/C3=O)C4CC4)F (stereo not drawn) , system NOMO1? 86.9

* * *

Test system: SEM cells
testDescription: cell viability relative to DMSO control; higher = less cytotoxic
recordedConditions: RPMI 5 mM glucose + 10% FBS; 48 h; 0.0211 µM
measurementLabel: cell viability (%)
The figure you give is taken to be in %; do not add the unit.

Would you kindly share the measured cell viability for CN[S+](=O)([O-])Cc1ccc2[nH]cc(CCN(C)C)c2c1 ? 114

Any idea what cell viability was measured for CC(=O)O.Cc1c(-c2ccc(O)cc2)n(Cc2ccc(OCCN3CCCCCC3)cc2)c2ccc(O)cc12 ? 98.7

So what's the measured cell viability for this one? Cc1ccc(NC(=O)c2ccc(CN3CCN(C)CC3)cc2)cc1Nc1nc(-c2cccnc2)cs1 71.2

Any idea what its cell viability is? The molecule is CC(N[C@H]1C[C@@H]1c1ccccc1)c1ccc2c(c1)OCCO2 (stereo partly specified) 97.7

Param item = CCC(C)SSc1ncc[nH]1 (stereo unspecified) ; retrieve measured cell viability. 102

Which cell viability value is on record for Cl.Cl.Cl.O[C@@H](COc1cccc2ncccc12)CN1CCN([C@@H]2c3ccccc3[C@@H]3[C@H](c4ccccc42)C3(F)F)CC1 ? 95.7

Consider the molecule shown here: C[C@H](NC(=O)/C(C#N)=C/c1cccc(Br)n1)c1ccccc1 What is its recorded cell viability? 107

So what's the measured cell viability for this one? COC1=NC(=NC(=C1N\C2=N\CCN2)Cl)C 84

Would you kindly share the measured cell viability for CC(=O)O[C@H]1C(=O)[C@]2(C)[C@@H](O)C[C@H]3OC[C@@]3(OC(C)=O)C2[C@H](OC(=O)C4=CC=CC=C4)[C@]5(O)C[C@H](OC(=O)[C@H](O)[C@@H](NC(=O)C6=CC=CC=C6)C7=CC=CC=C7)\C(=C1/C5(C)C)C (stereo partly specified) ? 17

Sample CNC1CCC(N(Cc2cccc(-c3ccncc3)c2)C(=O)c2sc3ccccc3c2Cl)CC1 (stereo unspecified) — what was its cell viability? 114

Could you share which cell viability value was measured for C[C@H](O)[C@H]1[C@@H]2[C@H](C)C(=C(\N2C1=O)C(O)=O)/S[C@@H]3CN[C@H](CN[S+](N)([O-])=O)C3 ? 128

cell viability for CNC(=O)c1ccc(-c2cnc3ncc(Cc4ccc5ncccc5c4)n3n2)cc1F ? 127

Endpoint output: cell viability of Cc1ccccc1N1C(=O)c2cc([S+](N)(=O)[O-])c(Cl)cc2NC1C (stereo unspecified) . Value? 109

Record request: cell viability value, item Cc1c(CCOc2ccc(C(=O)O)cc2)c2cc(Cl)ccc2n1C(c1ccccc1)c1ccccc1 118

Look up cell viability for this molecule: CN(C)CCOc1cc(-c2cn[nH]c2)ccc1NC(=O)C1COc2ccccc2O1 (stereo unspecified) 94.9

# input molecule: Oc1ccc2c3c1O[C@H]1c4[nH]c5c(c4C[C@@]4(O)[C@@H](C2)N(CC2CC2)CC[C@]314)C[C@@]1(O)[C@H]2Cc3ccc(O)c4c3[C@@]1(CCN2CC1CC1)[C@H]5O4 ; wanted: its cell viability 85.7

* * *

Test system: NOMO1
testDescription: cell viability relative to DMSO control; higher = less cytotoxic
recordedConditions: RPMI 5 mM glucose + 10% FBS; 48 h; 15.4 µM
measurementLabel: cell viability (%)
Quick note: give the figure in %, leave out the unit.

Please tell me: cell viability of c1cncc(CN2CCC(n3ncc4c(N5CCOCC5)nc(-c5ccc6[nH]ccc6c5)nc43)CC2)c1 , system NOMO1? 49.3

For NOMO1, provide cell viability of C/C=C(/C)C(=O)O[C@H]1C(C)=C2[C@H]([C@@H]1OC(=O)CCCCCCC)[C@@](C)(OC(C)=O)C[C@H](OC(=O)CCC)[C@@]1(O)[C@H]2OC(=O)[C@@]1(C)O please. 3.83

Short answer please: cell viability, NOMO1, entry COc1nccc(-c2c(-c3ccc(F)cc3)ncn2C2CCNCC2)n1 97.6

Request: cell viability, test system NOMO1, entry ClC1=C(N\C2=N\CCN2)C3=NSN=C3C=C1 125

Could you share what cell viability was measured for COC1CCC(CC1)N(C(=O)C2CCC(C)CC2)C3=C(SC(=C3)\C4=C\CCCC4)C(O)=O (stereo unspecified) , tested on NOMO1? 90.7

Record lookup: for NOMO1, what cell viability belongs to COC[C@H]1OC(=O)C2=COC3=C2[C@@]1(C)\C4=C(C5CCC(=O)[C@@]5(C)C[C@H]4OC(C)=O)/C3=O (stereo partly specified) ? 91.8

Short answer please: cell viability, NOMO1, entry COC1=C(N2CCNC(C)C2)C(=CC3=C1N(\C=C(C(O)=O)/C3=O)C4CC4)F (stereo unspecified) 111

What reported cell viability corresponds to C[C@]\12CC[C@H](O)CC1=C/CC3C2CC[C@@]\4(C)C3C\C=C4[N]5C=NC6=C5C=CC=C6 (stereo partly specified) on NOMO1? 125

// fetch NOMO1 cell viability for CC(=O)Nc1ccc(OC[C@](C)(O)C(=O)Nc2ccc([N+](=O)[O-])c(C(F)(F)F)c2)cc1 86.9

API: value(readout=cell viability, system=NOMO1) for record CC(C)[C@@H](N(CCCN)C(=O)C1=CC=C(C)C=C1)C/2=N/C3=CC(=CC=C3C(=O)N2CC4=CC=CC=C4)Cl 9.55

// fetch NOMO1 cell viability for CC\1=C(C(\N=C(/N1)C2=CC(=NC=C2)Cl)C3=C(F)C=C(Cl)C=C3)/C(=O)NC4=C(F)C=C5[NH]N=CC5=C4 (stereo unspecified) 85.3

Look up cell viability with NOMO1 for this molecule: FC(F)(F)c1ccc(/C=C/c2nc(COc3ccc(CCCCn4ccnn4)cc3)co2)cc1 15.3

Give cell viability (NOMO1) of the following molecule: CC(=O)O[C@H]1C(=O)[C@]2(C)[C@@H](O)C[C@H]3OC[C@@]3(OC(C)=O)C2[C@H](OC(=O)C4=CC=CC=C4)[C@]5(O)C[C@H](OC(=O)[C@H](O)[C@@H](NC(=O)C6=CC=CC=C6)C7=CC=CC=C7)\C(=C1/C5(C)C)C (stereo partly specified) 23.2

Form entry - test system: NOMO1; read-out: cell viability; molecule: COc1ccc(-c2cc3nccn3c(Nc3ncccc3C(N)=O)n2)cc1OC 92.7

Provide value of cell viability for this record tested with NOMO1: Cn1c(=O)c2c(ncn2C)n(C)c1=O.O=C(O)CC(O)(CC(=O)O)C(=O)O 91.2

Under NOMO1: cell viability value of CC(=O)Oc1ccccc1C(=O)O ? 101

Reference for the values: the supplement of paper PMC11451515
